- Organism: Rattus norvegicus
- test: DrugMatrix - Regimen: Daily Repeat
- Format: toxicity, organism-based, Sprague-Dawley
- Design: regimen Daily Repeat, gender Male, age 6-8 weeks
- condition-notes: in vivo, po, 0 mg/kg, 72 h, tissue Plasma, route oral GAVAGE, dose level Control, time 3 day, vehicle .5 % CMC
quantity: CREATININE (mg/dL)
Number in mg/dL, nothing else.

CCCCC1C(=O)N(c2ccccc2)N(c2ccccc2)C1=O    0.27

INPUT: Can you look up the measured CREATININE of C[C@@H]1CC[C@H]2[C@@H](C)C(=O)O[C@@H]3O[C@@]4(C)CC[C@@H]1[C@]32OO4 for me?
OUTPUT: 0.18

INPUT: Can you look up the measured CREATININE of COc1ccccc1OCC(O)COC(N)=O (stereo not drawn) for me?
OUTPUT: 0.18

###

- Species: Rattus norvegicus
- test: DrugMatrix - Regimen: Daily Repeat
- Format: toxicity, organism-based, Sprague-Dawley
- Design: regimen Daily Repeat, gender Male, age 6-8 weeks
- condition-notes: in vivo, po, 0 mg/kg, 120 h, tissue Plasma, route oral GAVAGE, dose level Control, time 5 day, vehicle .5 % CMC
quantity: URIC ACID

CCCCC1C(=O)N(c2ccccc2)N(c2ccccc2)C1=O    1.48 mg/dL
C[C@@H](O)[C@H]1C(=O)N2C(C(=O)O)=C(S[C@@H]3CN[C@H](C(=O)N(C)C)C3)[C@H](C)[C@H]12    1.83 mg/dL
O=c1cc(-c2ccccc2)oc2ccc3ccccc3c12    1.04 mg/dL

// below: URIC ACID requested for another compound
INPUT: Can you look up the measured URIC ACID of CC(=O)O[C@]1(C(C)=O)CC[C@H]2[C@@H]3C=C(Cl)C4=CC(=O)[C@@H]5C[C@@H]5[C@]4(C)[C@H]3CC[C@@]21C [CYPROTERONE ACETATE] for me?
OUTPUT: 1.5 mg/dL

###

- Species on record: Rattus norvegicus
- test: DrugMatrix - Regimen: Daily Repeat
- Type: toxicity, organism-based, Sprague-Dawley
- Design: regimen Daily Repeat, gender Male, age 6-8 weeks
- condition-notes: in vivo, po, 0 mg/kg, 120 h, tissue Plasma, route oral GAVAGE, dose level Control, time 5 day, vehicle 100 % WATER
quantity: TOTAL BILIRUBIN
A complete answer gives the number followed by the unit.

Below are worked cases with known answers.
Cc1c(N(C)CS(=O)(=O)[O-])c(=O)n(-c2ccccc2)n1C.[Na+] [DIPYRONE SODIUM]    0.2 mg/dL
CCOC(N)=O    0.18 mg/dL

INPUT: Can you look up the measured TOTAL BILIRUBIN of CCN(CC)CC#CCOC(=O)C(O)(c1ccccc1)C1CCCCC1 (centres undefined) [OXYBUTYNIN] for me?
OUTPUT: 0.18 mg/dL

INPUT: Can you look up the measured TOTAL BILIRUBIN of CCCCCCCCCCCCCCCC[n+]1ccccc1.[Br-] for me?
OUTPUT: 0.23 mg/dL

INPUT: Can you look up the measured TOTAL BILIRUBIN of CNS(=O)(=O)Cc1ccc2[nH]cc(CCN(C)C)c2c1 for me?
OUTPUT: 0.17 mg/dL

###

ERYTHROCYTE COUNT by entry:
- Organism: Rattus norvegicus
- test: DrugMatrix - Regimen: Daily Repeat
- Format: toxicity, organism-based, Sprague-Dawley
- Parameters: regimen Daily Repeat, gender Male, age 6-8 weeks
- condition-notes: in vivo, po, 0 mg/kg, 120 h, tissue Blood, route oral GAVAGE, dose level Control, time 5 day, vehicle .5 % CMC
Number in x10E6/uL, nothing else.

Below are worked cases with known answers.
CC(=O)O[C@]1(C(C)=O)CC[C@H]2[C@@H]3C=C(Cl)C4=CC(=O)[C@@H]5C[C@@H]5[C@]4(C)[C@H]3CC[C@@]21C [CYPROTERONE ACETATE]    5.32
C[C@]12C/C(=C/O)C(=O)C[C@@H]1CC[C@@H]1[C@@H]2CC[C@@]2(C)[C@H]1CC[C@]2(C)O    7.12
CCOC(=O)[C@H](CCc1ccccc1)N[C@@H](C)C(=O)N1Cc2ccccc2C[C@H]1C(=O)O    5.32

// below: ERYTHROCYTE COUNT requested for another compound
INPUT: Can you look up the measured ERYTHROCYTE COUNT of C[C@@H](O)[C@H]1C(=O)N2C(C(=O)O)=C(S[C@@H]3CN[C@H](C(=O)N(C)C)C3)[C@H](C)[C@H]12 for me?
OUTPUT: 5.78
